Each record here notes measured Papp A→B at 180 min.
Experiment: Caco-2 membrane permeability, improved method as used in the following Examples (96-well, 20 to 24 h preincubation)
Type: in vitro ADME
Details: human, Caco-2, Caco-2 (cm/sec)
Positions of bridges follow the written chain, without caps; N, C: chain ends. Non-standard residues stand in square brackets, D forms with d. Residues, ends and D or L forms follow the SMILES beside them. *: point of attachment. Phe(4-CF3) = N[C@@H](Cc1ccc(C(F)(F)F)cc1)C(=O)O; NMeF = CN[C@@H](Cc1ccccc1)C(=O)O; NMeL = CN[C@@H](CC(C)C)C(=O)O; NMeV = CN[C@H](C(=O)O)C(C)C; NMeA = CN[C@@H](C)C(=O)O; Piperidide = C1CCN(*)CC1; Sar = CNCC(=O)O; tBu = CC(C)(C)*
quantity: Papp A→B at 180 min (×10⁻⁶ cm/s)

CC(C)C[C@H]1C(=O)N[C@@H](COC(C)(C)C)C(=O)N[C@@H]([C@@H](C)O)C(=O)N(C)[C@@H](Cc2ccccc2)C(=O)N[C@H](C(=O)N2CCCCC2)CC(=O)N[C@@H](C)C(=O)N(C)[C@@H](Cc2ccccc2)C(=O)N(C)[C@@H](C)C(=O)N(C)[C@@H](Cc2ccccc2)C(=O)N(C)[C@@H](CC(C)C)C(=O)N[C@@H](Cc2ccccc2)C(=O)N1C [pd237] (A[NMeF][NMeA][NMeF][NMeL]F[NMeL]S(tBu)T[NMeF]D-Piperidide; lactam N-11) :: 0.089
CC(C)C[C@H]1C(=O)N[C@@H](COC(C)(C)C)C(=O)N(C)[C@@H](Cc2ccccc2)C(=O)N(C)[C@@H](C)C(=O)N[C@H](C(=O)N2CCCCC2)CC(=O)N[C@H](C(C)C)C(=O)N(C)[C@@H](C(C)C)C(=O)N[C@@H](Cc2ccc(C(F)(F)F)cc2)C(=O)N(C)[C@@H](CC(C)C)C(=O)N[C@@H]([C@@H](C)O)C(=O)N(C)CC(=O)N1C [pd134] ([dV][NMeV][Phe(4-CF3)][NMeL]T[Sar][NMeL]S(tBu)[NMeF][NMeA]D-Piperidide; lactam N-11) :: 2.6

* * *

Assay: Caco-2 membrane permeability, improved method as used in the following Examples (96-well, 20 to 24 h preincubation)
Type: in vitro ADME
Details: human, Caco-2, Caco-2
Positions of bridges follow the written chain, without caps; N, C: chain ends. Non-standard residues stand in square brackets, D forms with d. Residues, ends and D or L forms follow the SMILES beside them. *: point of attachment. NMeF = CN[C@@H](Cc1ccccc1)C(=O)O; NMeL = CN[C@@H](CC(C)C)C(=O)O; NMeS = CN[C@@H](CO)C(=O)O; NMeA = CN[C@@H](C)C(=O)O; Piperidide = C1CCN(*)CC1; Abu = CC[C@H](N)C(=O)O; Isopentyl = CC(C)CC*; Sar = CNCC(=O)O; tBu = CC(C)(C)*
Catalogue of Papp A→B at 180 min values
quantity: Papp A→B at 180 min (×10⁻⁶ cm/s)

CC[C@@H]1NC(=O)[C@H](Cc2ccccc2)N(C)C(=O)[C@H](COCCC(C)C)N(C)C(=O)[C@H](CC(C)C)NC(=O)[C@H](C)N(C)C(=O)C[C@@H](C(=O)N2CCCCC2)NC(=O)[C@H](CC(C)C)N(C)C(=O)CN(C)C(=O)[C@H]([C@@H](C)O)NC(=O)[C@H](CC(C)C)N(C)C(=O)[C@H](Cc2ccccc2)N(C)C1=O [pd307] ([NMeA]L[NMeS](Isopentyl)[NMeF][Abu][NMeF][NMeL]T[Sar][NMeL]D-Piperidide; lactam N-11) :: 2.9
CC(C)CCOC[C@@H]1NC(=O)[C@H](Cc2ccccc2)N(C)C(=O)[C@@H](C)NC(=O)C[C@@H](C(=O)N2CCCCC2)NC(=O)[C@H](CC(C)C)N(C)C(=O)[C@H](Cc2ccccc2)N(C)C(=O)[C@H](COC(C)(C)C)NC(=O)[C@H](CC(C)C)N(C)C(=O)CN(C)C(=O)[C@H]([C@@H](C)O)NC(=O)[C@H](CC(C)C)N(C)C1=O [pd301] ([dA][NMeF]S(Isopentyl)[NMeL]T[Sar][NMeL]S(tBu)[NMeF][NMeL]D-Piperidide; lactam N-11) :: 1.7
